Values from paper PMC12618484

Molecular target: dihydrolipoamide dehydrogenase (DLD) (Homo sapiens)
Sequence (P09622 36-509): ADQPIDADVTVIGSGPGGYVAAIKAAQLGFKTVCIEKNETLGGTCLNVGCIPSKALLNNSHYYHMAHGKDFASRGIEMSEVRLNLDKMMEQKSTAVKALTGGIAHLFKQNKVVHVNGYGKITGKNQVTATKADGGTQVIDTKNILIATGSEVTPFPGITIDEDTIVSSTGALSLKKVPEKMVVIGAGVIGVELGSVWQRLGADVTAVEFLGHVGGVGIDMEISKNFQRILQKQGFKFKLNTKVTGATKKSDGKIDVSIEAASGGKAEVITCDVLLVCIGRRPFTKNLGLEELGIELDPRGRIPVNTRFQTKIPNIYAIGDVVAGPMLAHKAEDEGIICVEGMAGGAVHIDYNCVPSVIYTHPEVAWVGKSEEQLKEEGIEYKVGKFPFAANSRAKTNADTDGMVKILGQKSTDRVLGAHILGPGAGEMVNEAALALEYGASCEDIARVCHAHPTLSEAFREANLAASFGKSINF

compound: O=C(O)CCCCC(CCSCc1ccccc1)SCc1ccccc1 (stereo not shown) [devimistat]
Kd: 500 to 600 nM
